System: Key Grass and Sedge Weeds as well as Grass Crops
Assay info: Post-Emergent Test II (Table 6)
Assay type: in vivo
Study conditions: post-emergence, 336 h, SORVU: grain sorghum (Sorghum vulgare), 70 g ai/ha, 14 days after application, read-out: Visual Growth Reduction (%) 14 Days After Application SORVU
Recorded metric: pest or weed control at 70 g/ha

Worked cases, answers included:
* Nc1c(F)c(-c2ccc(Br)nc2)nc(C(=O)O)c1Cl | 85 to 94%
* Nc1c(F)c(-c2ccc(C(F)(F)F)nc2)nc(C(=O)O)c1Cl | 85 to 94%
* COC(=O)c1nc(-c2ccc(C(F)(F)F)nc2F)nc(N)c1Cl | 0 to 29%
* COC(=O)c1nc(-c2ccc(OC(F)F)nc2)c(F)c(N)c1Cl | 60 to 74%

Problem: Requested field: pest or weed control at 70 g/ha. Item: COC(=O)c1nc(-c2ccc(Cl)nc2Cl)cc(N)c1Cl
Result: 0 to 29%

Problem: Requested field: pest or weed control at 70 g/ha. Item: COC(=O)c1nc(-c2ccc(Cl)c(F)c2C(=O)O)cc(N)c1Cl
Result: 0 to 29%

Problem: Requested field: pest or weed control at 70 g/ha. Item: Nc1cc(-c2ccc(Cl)c(F)c2CO)nc(C(=O)O)c1Cl
Result: 0 to 29%

Problem: Requested field: pest or weed control at 70 g/ha. Item: COC(=O)c1nc(-c2ccc(Br)nc2)c(F)c(N)c1Cl
Result: 95 to 100%

Problem: Requested field: pest or weed control at 70 g/ha. Item: COC(=O)c1nc(-c2ccc(I)c(F)c2C)cc(N)c1Cl
Result: 0 to 29%

Reference source: patent US10765114B2
